- Test Description: degree of order S in liquid crystal mixture
- Format: physicochemical
- Conditions: liquid crystal mixture ZLI 1957/5
Measured Attribute: Degree of order S (at room temp.)

CCCCC(CC)c1nnc(-c2ccc(N=Nc3cc(C)c(N=Nc4ccc(N(C)CCCC)cc4)cc3C)cc2)o1 (centres unmarked) [Example 6] : 0.68
CCCCSc1nnc(-c2ccc(N=Nc3ccc(N=Nc4ccc(N(C)CCCC)cc4)c4ccccc34)cc2)s1 [Example 9] : 0.77
CCCCc1nnc(-c2ccc(N=Nc3ccc(N=Nc4ccc(N(C)CCCC)cc4)c4ccccc34)cc2)o1 [Example 10] : 0.74
CCCCCCCCSc1nnc(-c2ccc(N=Nc3ccc(N=Nc4ccc(N(C)CCCC)cc4)c4ccccc34)cc2)s1 [Example 14] : 0.77
CCCCCCCC(C)Sc1nnc(-c2ccc(N=Nc3ccc(N=Nc4ccc(OCc5ccc(C6CCC(CCCC)CC6)cc5)cc4C)c4ccccc34)cc2)s1 (centres unmarked) [Example 19] : 0.77
CCCCC(CC)c1nnc(-c2ccc(N=Nc3ccc(N=Nc4ccc(N(C)CCCC)cc4)c4ccccc34)cc2)o1 (centres unmarked) [Example 11] : 0.74
CCCCSc1nnc(-c2ccc(N=Nc3ccc(N=Nc4ccc(N(C)C)cc4)c4ccccc34)cc2)s1 [Example 8] : 0.78
CCCCc1nnc(-c2ccc(N=Nc3cc(C)c(N=Nc4ccc(N(C)CCCC)cc4)cc3C)cc2)o1 [Example 5] : 0.73
CCCCSc1nnc(-c2ccc(N=Nc3cc(C)c(N=Nc4ccc(N(C)CCCC)cc4)cc3C)cc2)s1 [Example 2] : 0.74
CCCCC(CC)c1nnc(-c2ccc(N=Nc3ccc(N=Nc4ccc(NCC)c5ccccc45)c4ccccc34)cc2)o1 (centres unmarked) [Example 12] : 0.71
CCCCc1nnc(-c2ccc(N=Nc3cc(C)c(N=Nc4ccc(OCc5ccc(C6CCC(CC)CC6)cc5)cc4C)cc3C)cc2)o1 (centres unmarked) [Example 1] : 0.76

###

- Test Description: solubility L in liquid crystal mixture
- Format: physicochemical
- Conditions: 1 week stirring, liquid crystal mixture ZLI 1957/5
Measured Attribute: Solubility L (at room temp.) (%)

# annotated cases, reported Solubility L (at room temp.) shown
CCCCC(CC)c1nnc(-c2ccc(N=Nc3ccc(N=Nc4ccc(NCC)c5ccccc45)c4ccccc34)cc2)o1 (stereo not shown) : 0.8
CCCCSc1nnc(-c2ccc(N=Nc3ccc(N=Nc4ccc(N(C)C)cc4)c4ccccc34)cc2)s1 : 0.5

(A) CCCCSc1nnc(-c2ccc(N=Nc3ccc(N=Nc4ccc(N(C)CCCC)cc4)c4ccccc34)cc2)s1
(B) CCCCc1nnc(-c2ccc(N=Nc3cc(C)c(N=Nc4ccc(N(C)CCCC)cc4)cc3C)cc2)o1
A or B : whose Solubility L (at room temp.) is greater? Record your answer as the label of the chosen record. B
(B: 1.3%, A: 0.3%)

###

- Test Description: degree of order S in liquid crystal mixture
- Type: physicochemical
- Conditions: liquid crystal mixture ZLI 1840
Measured Attribute: Degree of order S (at room temp.)

CCOC(=O)c1sc(-c2ccc(N=Nc3ccc(N=Nc4ccc(N(C)C)cc4)c4ccccc34)cc2)nc1C [Example 7] : 0.74
CCCCSc1nnc(-c2ccc(N=Nc3ccc(N=Nc4ccc(N(C)CCCC)cc4)c4ccccc34)cc2)s1 [Example 9] : 0.79
CCCCc1nnc(-c2ccc(N=Nc3cc(C)c(N=Nc4ccc(OCc5ccc(C6CCC(CC)CC6)cc5)cc4C)cc3C)cc2)o1 (stereo not drawn) [Example 1] : 0.76
CCCCc1nnc(-c2ccc(N=Nc3cc(C)c(N=Nc4ccc(N(C)CCCC)cc4)cc3C)cc2)o1 [Example 5] : 0.73
Cc1cc(N=Nc2ccc(N(C)C)cc2)c(C)cc1N=Nc1ccc(-c2nnc(SCc3ccccc3)s2)cc1 [Example 4] : 0.78
CCCCSc1nnc(-c2ccc(N=Nc3ccc(N=Nc4ccc(N(C)C)cc4)c4ccccc34)cc2)s1 [Example 8] : 0.76
